# Tested on: ISC-enriched organoids
# assayNotes: Primary screen, 384-well 2.5-D organoid differentiation (ENR+CD, 6 days, Target Selective Inhibitor Library, vs whole-plate median): ATP (CellTiter-Glo 3D, CTG)
# testParameters: Dose 2.00 uM; ENR+CD, 6 days; FC vs plate median
readoutName: Dose.FC.CTG (log 2 fold change)
State the answer as a number, implicitly in log 2 fold change.

Some compounds with recorded Dose.FC.CTG:
CC(C)c1cc(-c2n[nH]c(=O)n2-c2ccc3c(ccn3C)c2)c(O)cc1O [Ganetespib (STA-9090)] ... −1.721
CCOC(=O)c1ccc(NC2CCCCC2)c(N)c1 ... 0.215

Inquiry: I have this compound here, CCCCCCCCc1ccc(CCC(N)(CO)CO)cc1.Cl [Fingolimod (FTY720) HCl] , and I need its recorded Dose.FC.CTG.
Reply text: −0.468

Inquiry: Try the compound C[C@]12C=CC(=O)N[C@@H]1CC[C@@H]1[C@@H]2CC[C@]2(C)[C@@H](C(=O)Nc3cc(C(F)(F)F)ccc3C(F)(F)F)CC[C@@H]12 [Dutasteride]
Reply text: −0.098

Inquiry: Try the compound CC(C)Oc1ccc(-c2cnc3c(-c4ccnc5ccccc45)cnn3c2)cc1
Reply text: −0.002

Inquiry: Try the compound O=C(O)c1cc2cccc([N+](=O)[O-])c2[nH]1
Reply text: −0.081

Inquiry: Try the compound CC(C)C[C@H](NC(=O)[C@@H](NC(=O)c1cccc(-c2ccccc2)n1)[C@@H](C)O)B(O)O
Reply text: −0.990
